- Tested on: SW-620 colon
- experiment_summary: NCI tumour cell line growth inhibition, 48 h
// reported TGI per item
property_measured: TGI

INSERT INTO assay_data (compound, target_of_assay, property_measured, observed_measurement) VALUES
  ('c1ccc(C2N3CCCCC3[C@@H]3c4[nH]c5ccccc5c4CCN23)cc1 (stereo partly specified)', 'SW-620 colon', 'TGI', '> 100 µM'),
  ('COc1cc2c(cc1O)C(C)Cc1cc3c(cc1N(C)CC2)OCO3 (stereo unspecified)', 'SW-620 colon', 'TGI', '> 56.4 µM'),
  ('C/C(=N\Nc1nc2ccccc2o1)c1ccncn1', 'SW-620 colon', 'TGI', '> 39.3 µM'),
  ('CC1OC(OC2CC(O)(C(=O)CO)Cc3c(O)c4c(c(O)c32)C(=O)c2ccccc2C4=O)CC(N)C1O (stereo unspecified)', 'SW-620 colon', 'TGI', '2.48 µM'),
  ('N=c1ccn2c(n1)O[C@@H]1[C@@H](O)[C@H](CO)O[C@@H]12', 'SW-620 colon', 'TGI', '> 100 µM'),
  ('CC(=O)OCC1OC(n2c(-c3ccccc3)c(C)c(C)c(C#N)c2=S)C(OC(C)=O)C(OC(C)=O)C1OC(C)=O (stereo unspecified)', 'SW-620 colon', 'TGI', '> 100 µM');

Values compiled from PubChem BioAssay (NCI).
